B1: Azoarcus group I ribozyme (parent)
chain: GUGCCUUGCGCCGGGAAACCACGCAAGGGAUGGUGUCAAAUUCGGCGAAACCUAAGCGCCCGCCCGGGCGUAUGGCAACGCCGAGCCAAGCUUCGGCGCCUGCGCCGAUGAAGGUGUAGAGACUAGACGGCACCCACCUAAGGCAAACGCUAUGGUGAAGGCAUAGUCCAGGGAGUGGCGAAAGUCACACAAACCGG

variants of: B1; assay: reverse-splicing fitness (ratio to wild type); higher = more active; in vitro selection; Mg2+ level not given
parameter: reverse-splicing fitness

{"alteration": "C82A A120G A145U C150G C169A U176A", "value.reported": 0.0097}
{"alteration": "C82A A111G A145G C169A U176G", "value.reported": 0.00591}
{"alteration": "C82A A120C A145C C150U U176C", "value.reported": 0.0227}
{"alteration": "C82A A145C C150G C169G", "value.reported": 0.00828}

Provide reported reverse-splicing fitness for each item, in the same order as listed.
1. C82U A111C A120U A145U C150G C169G U176C
2. C82U A111C A120C A145C C150U
3. C82A A120C A145U C150U
4. C82G A111C A120C A145C C150U
5. A120U A145U C150U C169U U176A
6. C82U A145U C150U C169G U176C
7. C82A A111U A120C A145G C150U C169A U176C
8. C82G A111U A145U C150A C169G U176G

result:
0.00224
0.0104
0.086
0.0168
0.059
0.0107
0.018
0.0066
